Reported normalized growth is given for each of the following compounds.
- Experiment summary: chemical genetic growth profiling, strain panel (AID 1159580);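 note: tested at 20 µM; growth read once vehicle control cultures reached saturation at 30 °C; 1 = growth at the plate median or of vehicle wells; lower values mean less growth of the strain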
- Protocol conditions: S. cerevisiae deletion strains, growth OD, locus YOR106W, strain vam3, stronger effect = lower value
In all, about 5,500 compounds went through this assay and about 2,000 (36%) were called active. Inconclusive results (about 18%) are left out. Some of the results follow.

| Compound | normalized growth |
| --- | --- |
| CCOC(=O)OC(C)OC(=O)C1N2C(=O)C(NC(=O)[C@H](N)c3ccccc3)C2SC1(C)C (stereo partly drawn) | 0.952 |
| CC1(C)CC(O)C2(C)CCC3(C)C(=CCC4C5(C)CCC(O)C(C)(CO)C5CCC43C)C2C1 (stereo not drawn) | 1.03 |
| COc1cc(C(=O)NCCCCCC(=O)O)cc(OC)c1OC | 0.979 |
| O=C(CNC(=O)c1ccc(Cl)cc1)NO | 1.02 |
| C[C@@H]1OC(O[C@H]2C(O[C@H]3CC[C@@]4(C)C(CC[C@]5(C)C4CC=C4C6CC(C)(C)CC[C@]6(C(=O)O)CC[C@]45C)[C@]3(C)CO)OC[C@H](O)[C@@H]2O)[C@H](O)[C@H](O)[C@H]1O (stereo partly drawn) | 0.0596 |
| FC(F)(F)c1ccccc1-n1ccnc1 | 0.951 |
| CC1(C)CC[C@]2(C(=O)O)CC[C@]3(C)C(=CCC4[C@@]5(C)CC[C@H](O)[C@@](C)(CO)C5CC[C@]43C)C2C1 (stereo partly drawn) | 1.04 |
| CC(=O)O[C@@H]1CC[C@@]2(C)C(CC[C@]3(C)C2CC=C2C4CC(C)(C)CC[C@]4(C(=O)O)CC[C@]23C)C1(C)C (stereo partly drawn) | 0.852 |

* * *

- Experiment summary: chemical genetic growth profiling, strain panel (AID 1159580);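 note: tested at 20 µM; growth read once vehicle control cultures reached saturation at 30 °C; 1 = growth at the plate median or of vehicle wells; lower values mean less growth of the strain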
- Protocol conditions: S. cerevisiae deletion strains, growth OD, locus YML124C, strain tub3, stronger effect = lower value
The whole screen tested about 5,500 compounds, of which about 2,000 (36%) were called active. Roughly 18% stayed inconclusive and do not appear here. This is one part of the list.
In this section we review reported normalized growth values for a set of compounds.

| Compound | normalized growth |
| --- | --- |
| CCCCCCCCCCCC[C@H](C(=O)O)[C@@H](C)C(=O)O | 0.998 |
| CCC(C)C(=O)O[C@H]1[C@H](O)C2C(CN3CC(C)CCC3[C@@]2(C)O)C2C[C@]34O[C@]5(O)C(OC(=O)C(C)(O)CC)CC[C@@]3(C)C5C(OC(C)=O)[C@@H](OC(C)=O)C4[C@@]21O (stereo not given in full) | 0.981 |
| CCOP(=S)(OCC)Oc1cc(C)nc(C(C)C)n1 | 0.998 |
| C=C/C(C)=C\CC1C(C)(O)CCC2C(C)(C)CCCC21C (stereo not given) | 0.184 |
| CC(=O)/C=C\[C@@H]1[C@@]2(C)CCCC(C)(C)C2CC[C@@]1(C)O (stereo not given in full) | 0.979 |

* * *

- Experiment summary: chemical genetic growth profiling, strain panel (AID 1159580);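 note: tested at 20 µM; growth read once vehicle control cultures reached saturation at 30 °C; 1 = growth at the plate median or of vehicle wells; lower values mean less growth of the strain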
- Protocol conditions: S. cerevisiae deletion strains, growth OD, locus YAL026C, strain drs2, stronger effect = lower value
The campaign covered roughly 5,500 compounds. About 2,000 (36%) were called active. Inconclusive results (about 18%) are left out. The list shows a part of the results.

| Compound | normalized growth |
| --- | --- |
| CCCOc1ccccc1-c1nc2n[nH]nc2c(=O)[nH]1 | 1.02 |
| O=C(CNC(=O)c1ccc(Cl)cc1)NO | 1.01 |
| CCOC(=O)OC(C)OC(=O)C1N2C(=O)C(NC(=O)[C@H](N)c3ccccc3)C2SC1(C)C (stereo partly specified) | 0.981 |
| CC(=O)O[C@@H]1CC[C@@]2(C)C(CC[C@]3(C)C2CC=C2C4CC(C)(C)CC[C@]4(C(=O)O)CC[C@]23C)C1(C)C (stereo partly specified) | 0.957 |
| CC1=NS(=O)(=O)c2cc(Cl)ccc2N1 | 0.972 |
| COc1cc(C(=O)NCCCCCC(=O)O)cc(OC)c1OC | 0.981 |
| CC(C)(Sc1cc(C(C)(C)C)c(O)c(C(C)(C)C)c1)Sc1cc(C(C)(C)C)c(O)c(C(C)(C)C)c1 | 1.01 |
| C[C@@H]1OC(O[C@H]2C(O[C@H]3CC[C@@]4(C)C(CC[C@]5(C)C4CC=C4C6CC(C)(C)CC[C@]6(C(=O)O)CC[C@]45C)[C@]3(C)CO)OC[C@H](O)[C@@H]2O)[C@H](O)[C@H](O)[C@H]1O (stereo partly specified) | 0.0592 |
| NC12CC3CC(CC(C3)C1)C2 | 0.996 |
| Cc1cc(C(C)(C)C)c(O)c(C(C)(C)C)c1 | 0.956 |
| CC(=O)O[C@H]1CC[C@@]2(C)C(CC[C@]3(C)C2CC=C2C4CC(C)(C)CC[C@]4(C)CC[C@]23C)C1(C)C (stereo partly specified) | 1.01 |
